A collection of binders and their measured koff
Biological target: T1, soluble human RGMc (human, UniProt Q6ZVN8 36-400)
T1 construct: also called huRGMc; soluble hRGMc
T1 sequence: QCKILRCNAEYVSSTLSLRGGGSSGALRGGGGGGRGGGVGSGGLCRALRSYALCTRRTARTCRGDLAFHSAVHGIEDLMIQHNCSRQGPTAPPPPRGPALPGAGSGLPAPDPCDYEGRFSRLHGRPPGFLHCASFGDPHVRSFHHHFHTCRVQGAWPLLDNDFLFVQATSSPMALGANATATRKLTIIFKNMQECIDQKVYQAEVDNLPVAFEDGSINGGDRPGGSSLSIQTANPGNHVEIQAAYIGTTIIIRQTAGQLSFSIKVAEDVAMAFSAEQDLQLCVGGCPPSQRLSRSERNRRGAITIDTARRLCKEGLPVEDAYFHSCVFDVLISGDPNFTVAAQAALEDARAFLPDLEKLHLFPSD
Assay: SPR (BIAcore);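 also: Anti-HJV antibodies, binding affinity to soluble human RGMc measured by BIAcore surface plasmon resonance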
Hi! Could you send only the number? It should be in s⁻¹, unit omitted.

For orientation, consider the following solved cases.
binder	resultUnit	koff
hHA-002 (antibody, human IgG1, kappa, L234A L235A, V domains shown, hIgG1 L234A, L235A, kappa) VH: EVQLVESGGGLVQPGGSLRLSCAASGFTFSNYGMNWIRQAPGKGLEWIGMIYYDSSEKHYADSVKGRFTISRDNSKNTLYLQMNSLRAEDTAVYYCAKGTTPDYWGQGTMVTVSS VL: DVVLTQSPLSLPVTLGQPASISCRSSQSLETSDGDTFLEWFQQRPGQSPRLLIYEVSSRFSGVPDRFSGSGSGTDFTLKISRVEAEDVGVYYCMQVTHDPLTFGQGTKLEIKR	s⁻¹	0.0017
hHA-006 (antibody, human IgG1, kappa, L234A L235A, V domains shown, hIgG1 L234A, L235A, kappa) VH: EVQLVESGGGLVQPGGSLRLSCAASGFTFSYYGMNWIRQAPGKGLEWIGMIYYDSSEKHYADSVKGRFTISRDNSKNTLYLQMNSLRAEDTAVYYCAKGTTPDYWGQGTMVTVSS VL: DVVLTQSPLSLPVTLGQPASISCRSSQSLEDSDGGTFLEWFQQRPGQSPRLLIYDVSSRFSGVPDRFSGSGSGTDFTLKISRVEAEDVGVYYCFQATHDPLTFGQGTKLEIKR	s⁻¹	0.00255
hHA-005 (antibody, human IgG1, kappa, L234A L235A, V domains shown, hIgG1 L234A, L235A, kappa) VH: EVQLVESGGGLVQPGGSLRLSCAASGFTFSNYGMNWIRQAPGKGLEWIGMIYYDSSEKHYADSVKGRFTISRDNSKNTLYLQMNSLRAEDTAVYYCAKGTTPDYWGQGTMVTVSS VL: DVVLTQSPLSLPVTLGQPASISCRSSQSLEESDGYTFLEWFQQRPGQSPRLLIYDVSERFSGVPDRFSGSGSGTDFTLKISRVEAEDVGVYYCFQATYDPLTFGQGTKLEIKR	s⁻¹	0.0136
hHA-009 (antibody, human IgG1, kappa, L234A L235A, V domains shown, hIgG1 L234A, L235A, kappa) VH: EVQLVESGGGLVQPGGSLRLSCAASGFTFSNYGMNWVRQAPGKGLEWIGMIYYDSSEKHYADSVKGRFTISRDNSKNTLYLQMNSLRAEDTAVYYCAKGTTPDYWGQGTMVTVSS VL: DVVLTQSPLSLPVTLGQPASISCRSSQSLADSDGDTFLHWFQQRPGQSPRLLIYAVSHRFSGVPDRFSGSGSGTDFTLKISRVEAEDVGVYYCFQATHDPVTFGQGTKLEIKR	s⁻¹	0.0107

Moving on to the next binder.
[ask] Tell us which koff value is on record for hHA-001 (antibody, human IgG1, kappa, L234A L235A, V domains shown, hIgG1 constant region with L234A, L235A, kappa) VH: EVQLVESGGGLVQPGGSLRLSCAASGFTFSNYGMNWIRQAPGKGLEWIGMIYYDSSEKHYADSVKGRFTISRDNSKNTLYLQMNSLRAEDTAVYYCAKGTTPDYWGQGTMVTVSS VL: DVVLTQSPLSLPVTLGQPASISCRSSQSLETSDGDTFLEWFQQRPGQSPRLLIYEVSTRFSGVPDRFSGSGSGTDFTLKISRVEAEDVGVYYCFQVTHDPMTFGQGTKLEIKR
[reply] 0.00165
